The reported measurements were obtained from PubChem BioAssay (NCI).

Tested on: SF-539 CNS
Experiment: NCI tumour cell line growth inhibition, 48 h
TGI below 30 µM gives 0; TGI at or above it gives 1.

Examples with answers:
>  <MOLECULE>
CC(C)(C)C(=O)C(C(=O)c1ccccc1)C(=O)C(C)(C)C

>  <QUALITATIVE LABEL>
1

$$$$
>  <MOLECULE>
Cc1nc(-c2nc(C)c(C(=O)/C=C/c3ccc([N+](=O)[O-])cc3)s2)sc1C(=O)/C=C/c1ccc([N+](=O)[O-])cc1

>  <QUALITATIVE LABEL>
1

$$$$
>  <MOLECULE>
CCOC(=O)c1c(SC(=O)C(C)(C)Oc2ccc(Cl)cc2)n(-c2ccccc2)c(=S)n(-c2ccccc2)c1=O

>  <QUALITATIVE LABEL>
1

$$$$
>  <MOLECULE>
Clc1ccc(CNc2ccc3nc(CCC4CCCCC4)[nH]c3c2)cc1

>  <QUALITATIVE LABEL>
0

$$$$
>  <MOLECULE>
CCCCCCCCCCCCCCCCCCOP1(=O)OCCO1

>  <QUALITATIVE LABEL>
1

$$$$

Exercise: Kindly determine if TGI recorded for O=C1C(Br)=CC2C1C1C3CCC3C2(Br)C12OCCO2 (stereo not given) is above or exactly 30 µM.
Key: 0

Exercise: Confirm if TGI reported for the molecule `Nc1cccc(CCN2CCN(CCCc3ccccc3)CC2)c1` is 30 µM or above.
Key: 1

Exercise: Does the molecule CC(C)/C=N\N1C(N)=C(C#N)C(C#N)(C#N)C1C(C)C (stereo not given) have recorded TGI that is 30 µM or more?
Key: 1

###

Test system: CAKI-1 renal
Experiment: NCI tumour cell line growth inhibition, 48 h; in the data active means GI50 below about 0.43 µM; inactive means the rest
Hi there, use one of these labels in your reply, thanks! active, inactive

>  <MOLECULE>
Cc1c2c(nn1-c1ccc(S/N=C3\SCC(=O)CN3Cc3ccccc3)cc1)-c1ccccc1CC2

>  <TARGET ENTITY>
CAKI-1 renal

>  <QUALITATIVE LABEL>
inactive

$$$$

Exercise: How was `COc1cc(-c2cc(/C=C3\C(=O)Nc4cc(Cl)ccc43)[nH]n2)cc(OC)c1OC` classified in this test?
Key: inactive

Exercise: Hi, do you know how `Cn1cc(C2=C(Oc3ccccc3)C(=O)NC2=O)c2ccccc21` came out in this test?
Key: inactive

Exercise: Hello, I am checking results. What call was entered for O=C1C(Br)=CC2C1C1C3CCC3C2(Br)C12OCCO2 (stereo not given) ?
Key: inactive

Exercise: # lookup: test call for `Oc1c(I)cc(I)cc1CNCCN(Cc1ccccn1)Cc1ccccn1`
Key: inactive

Exercise: What did this assay record as the result for `CCN1C(C)(C)CC(Oc2ccc(C(=O)Nc3ccc(NC(=O)Nc4cc(C(C)(C)C)on4)cc3)nc2)CC1(C)C` ?
Key: inactive

Exercise: # lookup: test call for `O=C(/C=C/c1cccs1)c1ccc(Cl)cc1Cl`
Key: inactive

Exercise: Which result was noted for this molecule in the test: `COc1ccc(NC(=O)Nc2ccccc2CNc2nc(Nc3ccc(OCCN4CCCC4)cc3)ncc2Cl)cc1`
Key: inactive

Exercise: Which outcome was assigned to `O=C(OCc1nc2nc(Cl)nc(N3CCOCC3)c2[nH]1)n1ccnc1` in this test?
Key: inactive

Exercise: Outcome? `CC(=O)OCc1cnc2c3c(nc4ccccc4c13)C(=O)c1cccnc1-2`
Key: active

###

Test system: MCF7 breast
Experiment: NCI tumour cell line growth inhibition, 48 h
Listed compounds paired with reported TGI
Quick reminder: number only, in µM, skip the unit.

Some solved cases for reference:
>  <CHEMICAL STRING>
CC(C)c1cc2c(c(O)c1O)[C@@]1(C)CCCC(C)(C)C1=C(O)C2

>  <TGI / µM>
2.85

$$$$
>  <CHEMICAL STRING>
CC(=O)OCc1cnc2c3c(nc4ccccc4c13)C(=O)c1cccnc1-2

>  <TGI / µM>
0.0904

$$$$
>  <CHEMICAL STRING>
CC(=O)c1c2c(cc3c1CC1(Cc4cc5c(cc4C1)CCCC5)C3)CCCC2

>  <TGI / µM>
56.9

$$$$
>  <CHEMICAL STRING>
Cc1ncc(C(=O)Nc2ccc(CN3CCN(C)CC3)c(C(F)(F)F)c2)cc1C#Cc1c(N)ncc2ccc(F)cc12

>  <TGI / µM>
1.33

$$$$
>  <CHEMICAL STRING>
CCN(CC)CCCNc1[nH]ncc2cc3c(nc4ccc(OC)cc43)c(C)c12

>  <TGI / µM>
16.6

$$$$
>  <CHEMICAL STRING>
Clc1ccc2c(NCCNC3CCCCC3)ccnc2c1

>  <TGI / µM>
15.9

$$$$
>  <CHEMICAL STRING>
CCOC(=O)c1c(SC(=O)C(C)(C)Oc2ccc(Cl)cc2)n(-c2ccccc2)c(=S)n(-c2ccccc2)c1=O

>  <TGI / µM>
57.2

$$$$
>  <CHEMICAL STRING>
C=CCN1CN(C2CCCCC2)CSC1=S

>  <TGI / µM>
9.11

$$$$

Query compound follows.
Exercise: Retrieve TGI measured for `COc1ccc(C2=C(Cl)C(=O)N(c3ccc(OC)cc3OC)C(=O)C2(Cl)Cl)cc1` and print it.
Key: 64.7

###

Test system: UACC-257 melanoma
Assay: NCI tumour cell line growth inhibition, 48 h
PROPERTY MEASURED: TGI

>  <COMPOUND>
CN=c1ss/c(=N\C(=S)N(C)C)n1-c1ccccc1

>  <PROPERTY MEASURED>
TGI

>  <RECORDED VALUE>
> 100 µM

$$$$

Exercise: Provide one value: measured TGI of CC(NC(=O)OC(C)(C)C)C(=O)NC(Cc1ccccc1)C(=O)NCC(=O)ON=C1CCCC1 (configuration not stated)
Key: > 100 µM

Exercise: Kindly indicate its recorded TGI. Item: `COc1ccccc1-c1cc(=O)c2c(C)ccnc2[nH]1`
Key: > 100 µM

Exercise: # return recorded TGI for entry CC(=O)N1C(Nc2ccccc2)CCN1c1ccccc1 (configuration not stated)
Key: > 10 µM

Exercise: Look up and report measured TGI for this entry: COc1ccc(C2SC(N)=Nc3c2c(C)nn3C(=O)c2ccccc2O)cc1 (configuration not stated)
Key: > 10 µM

Exercise: Please list TGI recorded for the compound CN(C(=O)Nc1ccc(Cl)c(Cl)c1)C1CCCC[C@@H]1N1CCCC1 (some centres not stated)
Key: 39.4 µM

Exercise: Let me know recorded TGI for Cc1cc(C)c2c(c1)CC1(Cc3c(ccc(C)c3C)C1=O)C2=O (configuration not stated) , thanks.
Key: > 100 µM

###

Test system: U251 CNS
Assay: NCI tumour cell line growth inhibition, 48 h
PROPERTY MEASURED: TGI

Reference set, count: 3
>  <COMPOUND>
O=C1C=C(c2[nH]c3ccccc3c2C2=CC(=O)c3ccccc3C2=O)C(=O)c2ccccc21

>  <PROPERTY MEASURED>
TGI

>  <RECORDED VALUE>
> 100 µM

$$$$
>  <COMPOUND>
CC(C)(C)c1ccc(S(=O)(=O)N2C(c3cccc(C4CC[C@@H](C(=O)O)N4S(=O)(=O)c4ccc(C(C)(C)C)cc4)c3)CC[C@H]2C(=O)O)cc1 (some centres undefined)

>  <PROPERTY MEASURED>
TGI

>  <RECORDED VALUE>
> 100 µM

$$$$
>  <COMPOUND>
O=C(NC/C(Cl)=C/Cl)Nc1c2ccccc2nc2ccccc12

>  <PROPERTY MEASURED>
TGI

>  <RECORDED VALUE>
> 100 µM

$$$$

Now let's try a different one.
Exercise: Given [C-]#[O+].[C-]#[O+].[C-]#[O+].[C-]#[O+].[O-]C(c1ccccc1[PH+]1OC(C(F)(F)F)(C(F)(F)F)c2ccccc21)(C(F)(F)F)C(F)(F)F.[Re] (centres undefined) , respond with its TGI.
Key: 14.1 µM

###

Tested on: UACC-62 melanoma
Experiment: NCI tumour cell line growth inhibition, 48 h
PROPERTY MEASURED: TGI (µM)
Quick reminder: number only, in µM, skip the unit.

>  <MOLECULE>
CN(C(=O)Nc1ccc(Cl)c(Cl)c1)C1CCCC[C@@H]1N1CCCC1 (stereo not given in full)

>  <PROPERTY MEASURED>
TGI

>  <RECORDED VALUE>
40.2

$$$$
>  <MOLECULE>
COc1cc(C2CC(c3cccc(Nc4ccnc5cc(Cl)ccc45)c3)=NN2C=O)cc(OC)c1OC (stereo not given)

>  <PROPERTY MEASURED>
TGI

>  <RECORDED VALUE>
2.66

$$$$
>  <MOLECULE>
CC(c1ccccc1)N1O[C@]12CC[C@@]1(C)C(CCCC13OCCO3)C2 (stereo not given in full)

>  <PROPERTY MEASURED>
TGI

>  <RECORDED VALUE>
35.4

$$$$

Below: the item to evaluate.
Exercise: Specify TGI for `CCN(CC)c1ccc(/C=N/NC(=O)c2ccc(S(C)(=O)=O)cc2)c(O)c1` and stop.
Key: 15.1
